Tested on: PBMC
Settings: 12.5 µM
recorded endpoint: Average (percentage cell inhibition), Mastoparan PBMC (%)

• CC[C@H](C)[C@H](N)C(=O)N[C@@H](CC(N)=O)C(=O)N[C@@H](CC(C)C)C(=O)N[C@@H](CCCCN)C(=O)N[C@@H](C)C(=O)N[C@@H](CC(C)C)C(=O)N[C@@H](C)C(=O)N[C@@H](CC(N)=O)C(=O)N[C@@H](CC(C)C)C(=O)N[C@@H](C)C(=O)N[C@@H](CCCCN)C(=O)N[C@@H](CCCCN)C(=O)N[C@H](C(=O)N[C@@H](CC(C)C)C(N)=O)[C@@H](C)CC = 16.8851
• CC[C@H](C)[C@H](N)C(=O)N[C@@H](CC(N)=O)C(=O)N[C@@H](CC(C)C)C(=O)N[C@@H](CCCCN)C(=O)N[C@@H](C)C(=O)N[C@@H](CC(C)C)C(=O)N[C@@H](C)C(=O)N[C@@H](C)C(=O)N[C@@H](CC(C)C)C(=O)N[C@@H](C)C(=O)N[C@@H](CCCCN)C(=O)N[C@@H](CC(N)=O)C(=O)N[C@H](C(=O)N[C@@H](CC(C)C)C(N)=O)[C@@H](C)CC = 5.917
• CC[C@H](C)[C@H](N)C(=O)N[C@@H](CC(N)=O)C(=O)N[C@@H](CC(C)C)C(=O)N[C@@H](CCCCN)C(=O)N[C@@H](C)C(=O)N[C@@H](CC(C)C)C(=O)N[C@@H](C)C(=O)N[C@@H](C)C(=O)N[C@@H](CC(C)C)C(=O)N[C@@H](CCCCN)C(=O)N[C@@H](CCCCN)C(=O)N[C@@H](CCCCN)C(=O)N[C@H](C(=O)N[C@@H](CC(C)C)C(N)=O)[C@@H](C)CC = 0.05559
